Test: CEETOX_H295R_DOC: CeeTox H295R High-throughput Steroidogenesis Assay for DOC (AID 2283439)
Conditions: actives raise or lower the signal
Activity calls are given as the source filed them. How the source made its calls: active means hit-call score of the fitted dose curve at least 0.9, where 1 is the maximum; inactive means score below 0.9.
outcome-measure: outcome

CCCCNC(=O)n1c(NC(=O)OC)nc2ccccc21 | inactive
CCNc1nc(Cl)nc(NC(C)C)n1 | inactive
Cc1c(F)c(F)c(COC(=O)C2C(/C=C(\Cl)C(F)(F)F)C2(C)C)c(F)c1F (stereo not drawn) | inactive

* * *

Read-out: succinate dehydrogenase complex iron sulfur subunit B (SDHB), SDHB (gene 6390)
Assay: LTEA_HepaRG_SDHB: Life Technologies and Expression Analysis (LTEA) Assay for succinate dehydrogenase complex iron sulfur subunit B (SDHB) using HepaRG (AID 2283528)
Settings: mRNA level, 48 h; actives raise or lower the signal
The source made the active and inactive calls. How the source made its calls: active means hit-call score of the fitted dose curve at least 0.9, where 1 is the maximum; inactive means score below 0.9.
outcome-measure: outcome

CNC(=O)ON=CC(C)(C)SC | inactive
Oc1ccccc1-c1ccccc1 | inactive
CON(C)C(=O)Nc1ccc(Cl)c(Cl)c1 | inactive

* * *

Assay: BSK_4H_Eotaxin3: BioMAP Diversity Plus: 4H Assay for Eotaxin 3 Biomarker Activity (AID 2283000);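 on outcome: CCL26 protein level quantified by ELISA in parallel with SRB cytotoxicity check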
Conditions: primary human endothelial cells (HUVEC); actives raise or lower the signal
Activity calls are given as the source filed them. How the source made its calls: active means hit-call score of the fitted dose curve at least 0.9, where 1 is the maximum; inactive means score below 0.9.
Please state which outcome applies, choosing from active, inactive

// known answers, use as guide
C=CC1(C)OC(=O)N(c2cc(Cl)cc(Cl)c2)C1=O (stereo not drawn) | inactive
COP(N)(=O)SC (stereo not drawn) | inactive
C#CCOS(=O)OC1CCCCC1Oc1ccc(C(C)(C)C)cc1 (stereo not drawn) | active
CC(C)Oc1cc(-n2nc(C(C)(C)C)oc2=O)c(Cl)cc1Cl | active
O=C(O)c1nc(Cl)ccc1Cl | inactive

What outcome does the record of this test show for `CCNc1nc(Cl)nc(NC(C)C)n1` ?
inactive

GET /call?item= `CON(C)C(=O)Nc1ccc(Cl)c(Cl)c1` returns the recorded outcome of this test.
inactive

Assay outcome for `CS/C(C)=N/OC(=O)N(C)SN(C)C(=O)O/N=C(\C)SC` : what was it?
active

Per the records of this test, what outcome belongs to `C=CCC1=C(C)[C@@H](OC(=O)[C@@H]2[C@@H](C=C(C)C)C2(C)C)CC1=O` ?
active

// outcome(item) with item = N#Cc1nn(-c2c(Cl)cc(C(F)(F)F)cc2Cl)c(N)c1S(=O)C(F)(F)F (stereo not drawn)
active

What classification did OC(c1ccc(Cl)cc1)(c1cncnc1)c1ccccc1Cl (stereo not drawn) end up with in this test?
inactive

Query: recorded result category for `CCOP(=S)(OCC)SCn1c(=O)oc2cc(Cl)ccc21` in this test
inactive

Please indicate how the test categorized `CNC(=S)S` .
active

Lab log entry: `CCOc1cc(Oc2ccc(C(F)(F)F)cc2Cl)ccc1[N+](=O)[O-]` — outcome as called in the assay?
inactive

I'd appreciate the recorded outcome for `CCc1nn(C)c(C(=O)NCc2ccc(C(C)(C)C)cc2)c1Cl` from this test.
active

Each compound tested received a call. Report the one for `COC(=O)c1ccccc1C(=O)OC` .
inactive

Hi, sorry to bother you, what did the test record for CCOC(=O)C(Cl)Cc1cc(-n2nc(C)n(C(F)F)c2=O)c(F)cc1Cl (stereo not drawn) ?
inactive

State the result this test recorded for `COc1nc(C)nc(NC(=O)NS(=O)(=O)c2ccccc2CCC(F)(F)F)n1` .
inactive
